- Experimental system: trypsin
- Method description: monoclonal phage ELISA on trypsin
Measurement label: ELISA signal
The answer should be written as a number, with no unit following it.

Problem: Name the reported ELISA signal value associated with the binder C09 (EET 5-3 KnotBody) (scFv, V domains shown) VH: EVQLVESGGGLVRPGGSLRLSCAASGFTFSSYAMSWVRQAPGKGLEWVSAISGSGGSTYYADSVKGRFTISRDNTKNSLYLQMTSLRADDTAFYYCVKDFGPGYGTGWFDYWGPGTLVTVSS VL: SEAPRQRVTITCGGKRCGPNGFCGSGSDGGVCPRILMRCKQDSDCLAGCTSNWYQQKPGQAPVLVVQDDSVRPSGIPERFSGSNSGNTATLTISRVEAGDGADYYCQVWDISSDLGVFGGGTKLTVLG
Result: 9820
